# target or test system: T1, recombinant human IGSF8 extracellular domain tagged by a human Fc region (IGSF8-hFc) (human, UniProt Q969P0 28-579, biotin label in Examples 17, 18 and 28 (site not given))
# T1 construct: also called IGSF8-Fc fusion protein; IGSF8-hFc-biotin; not shown: human Fc region
# T1 sequence: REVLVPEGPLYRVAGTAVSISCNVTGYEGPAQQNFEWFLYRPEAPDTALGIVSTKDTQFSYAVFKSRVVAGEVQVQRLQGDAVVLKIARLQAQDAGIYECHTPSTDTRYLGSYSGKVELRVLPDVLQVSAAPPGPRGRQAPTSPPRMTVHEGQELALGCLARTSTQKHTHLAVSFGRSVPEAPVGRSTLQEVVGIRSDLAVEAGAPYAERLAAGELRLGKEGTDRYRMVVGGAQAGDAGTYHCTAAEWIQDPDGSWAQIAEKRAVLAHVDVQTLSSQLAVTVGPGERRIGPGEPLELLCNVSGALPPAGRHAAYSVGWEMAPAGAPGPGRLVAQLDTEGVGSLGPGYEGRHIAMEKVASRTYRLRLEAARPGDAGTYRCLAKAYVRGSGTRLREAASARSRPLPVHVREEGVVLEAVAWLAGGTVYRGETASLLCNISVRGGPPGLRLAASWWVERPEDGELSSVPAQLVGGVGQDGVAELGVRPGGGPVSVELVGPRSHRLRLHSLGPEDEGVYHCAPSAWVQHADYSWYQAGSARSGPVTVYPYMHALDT
# experiment notes: SPR, Ab captured
The label Condition met is reserved for Kd strictly under 4 nM; Condition not met covers values equal to or above it.

In: Kd strictly < 4 nM for this binder? L1-07 (antibody, V domains shown) VH: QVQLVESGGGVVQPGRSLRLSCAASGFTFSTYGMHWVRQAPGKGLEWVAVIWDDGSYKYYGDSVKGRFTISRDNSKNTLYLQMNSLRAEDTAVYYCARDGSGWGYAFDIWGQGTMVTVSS VL: DIQLTQSPSSLSASVGDRVTITCQASQDIEWWLNWYQHKPGKAPNPLVFDAANLETGVPPRFSATGSGTDFSLTITSLQPEDFATYYCQQYDSFPYTFGQGTRLDIK
Out: Condition met

In: Kd strictly < 4 nM for this binder? L1-08 (antibody, V domains shown) VH: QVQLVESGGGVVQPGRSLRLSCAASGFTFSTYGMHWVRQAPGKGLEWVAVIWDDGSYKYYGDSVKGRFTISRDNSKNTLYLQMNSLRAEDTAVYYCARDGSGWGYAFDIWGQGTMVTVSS VL: DIQLTQSPSSLSASVGDRVTITCQASQDIGAYLNWYQHKPGKAPNPLVFDAANLETGVPPRFSATGSGTDFSLTITSLQPEDFATYYCQQYDSFPYTFGQGTRLDIK
Out: Condition not met

In: Kd strictly < 4 nM for this binder? L1-03 (antibody, V domains shown) VH: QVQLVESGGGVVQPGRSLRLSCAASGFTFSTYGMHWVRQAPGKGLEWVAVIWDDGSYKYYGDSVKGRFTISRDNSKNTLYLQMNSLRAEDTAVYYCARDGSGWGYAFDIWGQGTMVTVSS VL: DIQLTQSPSSLSASVGDRVTITCQASQDISEYLNWYQHKPGKAPNPLVFRSPNLETGVPPRFSATGSGTDFSLTITSLQPEDFATYYCQQYDSFPYTFGQGTRLDIK
Out: Condition not met

In: Kd strictly < 4 nM for this binder? L1-26 (antibody, V domains shown) VH: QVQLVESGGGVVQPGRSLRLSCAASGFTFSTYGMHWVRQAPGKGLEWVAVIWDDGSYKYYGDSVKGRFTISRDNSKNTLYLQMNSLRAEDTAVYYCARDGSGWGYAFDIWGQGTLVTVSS VL: DIQLTQSPSSLSASVGDRVTITCQASQDISPYLNWYQHKPGKAPKPLVFGSPNLETGVPSRFSASGSGTDFTLTISSLQPEDFATYYCQQYDSFPYTFGQGTKVEIK
Out: Condition met

In: Kd strictly < 4 nM for this binder? L1-15 (antibody, V domains shown) VH: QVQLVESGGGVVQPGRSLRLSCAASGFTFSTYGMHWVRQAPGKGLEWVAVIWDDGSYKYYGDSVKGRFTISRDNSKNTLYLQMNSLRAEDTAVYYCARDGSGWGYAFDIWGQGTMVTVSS VL: DIQLTQSPSSLSASVGDRVTITCQASQDIMKTLNWYQHKPGKAPNPLVFDAANLETGVPPRFSATGSGTDFSLTITSLQPEDFATYYCQQYDSFPYTFGQGTRLDIK
Out: Condition not met
